Origin of measurements: PubChem BioAssay

tested on: Sam68 (KHDRBS1); test: Sam68 small-molecule binders, primary screen, biochemical, small-molecule microarray, 635 nm fluorescence (AID 1125); conditions: small-molecule microarray binding, higher = more signal;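 also: score merges 667 nm channel intensity with signal to noise over triplicate slides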
ENDPOINT NAME: composite z-score
// print number alone

Previously resolved entries follow.
INSERT INTO results (structure_string, measured_number) VALUES
  ('C[C@@H](ON=C1[C@H]2CCn3c(=O)n(-c4ccccc4)c(=O)n3[C@H]2[C@H](O)[C@@H]2O[C@H]12)c1cn([C@@H]2COC[C@H]2O)nn1', 0.509),
  ('C#CCCCON=C1[C@H]2CCn3c(=O)n(-c4ccccc4)c(=O)n3[C@H]2[C@H](O)[C@@H]2O[C@H]12', 0.131),
  ('C=COC[C@@H]1CN2[C@@H](CC[C@@H](C)[C@@H]2c2ccc(Br)cc2)C(=O)O1', -0.0284),
  ('CC(C)=NO[C@H](C)c1cn([C@H](CO)Cc2ccccc2)nn1', 0.444),
  ('CC[C@@H](c1ccccc1)n1c(=O)n2n(c1=O)[C@H]1[C@H](O)[C@@H]3O[C@@H]3C(=O)[C@H]1CC2', 0.0274),
  ('CCCNC(=O)OC[C@H]1O[C@H](CCON=C(C)CCN2CCc3nc(CC)c(CC)cc3C2)C=C[C@@H]1Oc1ccc(OC)cc1', 0.285),
  ('CC(=O)OC[C@H]1O[C@H](CCON=C2[C@H]3CCn4c(=O)n(-c5ccccc5)c(=O)n4[C@H]3[C@H](O)[C@@H]3O[C@H]23)C=C[C@@H]1OC(C)=O', 0.283);

Next item in the queue.
Input line: Supply reported composite z-score belonging to this compound: COc1ccc(O[C@@H]2[C@H](O)CO[C@@H]2C=Cc2ccccc2)cc1
Output line: 0.0255

* * *

experiment: HepG2 cell viability effects, profiling panel, calcein-AM fluorescence, 48 h, basal (AID 1164); conditions: higher = more signal; also: test concentration not given here
ENDPOINT NAME: z-score
Enter a number only.

Answered cases to consult:
INSERT INTO measurements (structure_string, endpoint_name, measured_number) VALUES
  ('CCOC(=O)CCN1C(=O)[C@H]2[C@H]3[C@H](O)[C@H](O)CC(=NOCc4ccccc4)[C@H]3CC[C@H]2C1=O', 'z-score', -0.416),
  ('CC(C)=CCCC(C)=CCON=C1C[C@@H](O)[C@@H](O)[C@@H]2[C@@H]3C(=O)N(c4ccc(F)cc4F)C(=O)[C@@H]3CC[C@@H]12', 'z-score', -0.354),
  ('COc1ccc(COC(=O)NN=C2C[C@@H](O)[C@@H](O)[C@@H]3[C@@H]4C(=O)N(Cc5ccccc5)C(=O)[C@@H]4CC[C@H]23)cc1', 'z-score', -0.462);

Input line: Please look at this molecule and report its z-score: CC(CCN1CCCCc2nc(C)c(C)cc21)=NO[C@@H](C)c1cn([C@H](CO)Cc2ccccc2)nn1
Output line: 0.0163

* * *

target: Follistatin-related protein 3 (Homo sapiens) (UniProt O95633); test: FSTL3 binders on small-molecule microarrays, primary screen, biochemical, small-molecule microarray, 635 nm fluorescence (AID 1105); conditions: FSTL3 binding, higher = more signal;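 also: score merges emission near 667 nm and signal to noise per printed spot across three slides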
Sequence (O95633 whole entry, looked up): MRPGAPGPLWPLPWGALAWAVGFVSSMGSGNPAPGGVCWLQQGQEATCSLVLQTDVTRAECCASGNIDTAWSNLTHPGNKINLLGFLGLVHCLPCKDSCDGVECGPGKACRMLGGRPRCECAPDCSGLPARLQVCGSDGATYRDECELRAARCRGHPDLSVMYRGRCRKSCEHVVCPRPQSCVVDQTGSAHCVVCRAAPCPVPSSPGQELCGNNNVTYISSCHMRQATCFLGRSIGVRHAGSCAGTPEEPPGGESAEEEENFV
composite z-score for assorted compounds
No unit in the answer, please; the number alone is enough.

INSERT INTO assay_data (compound, endpoint_name, measured_number) VALUES
  ('O=C1CCCC=C1C(O)CCOC(c1ccccc1)(c1ccccc1)c1ccccc1 (stereo unspecified)', 'composite z-score', -0.108),
  ('COC(=O)CC=C[C@@H](C)[C@@H](C=NOCC[C@@H]1C=C[C@H](OC(C)=O)[C@@H](COC(C)=O)O1)OC', 'composite z-score', 0.651),
  ('Cc1cc2c(nc1C)CCCN2CC(O)CN1CCCc2nc(C)c(C)cc21', 'composite z-score', 0.552);

We now examine a further compound.
Input line: Indicate the recorded composite z-score value for this compound: O=C(NN=C1C[C@@H](O)[C@@H](O)[C@@H]2[C@@H]3C(=O)N(C[C@@H]4CCCO4)C(=O)[C@@H]3CC[C@@H]12)OCc1ccccc1
Output line: 0.0972

* * *

molecular target: Carbonic anhydrase 2 (Homo sapiens); experiment: CAII small-molecule binders, profiling panel, biochemical, small-molecule microarray, Alexa647-labelled CAII (AID 1122); settings: CAII-A647 binding fluorescence, higher = more signal
# maps each entry to its composite z-score

INSERT INTO results (compound, result) VALUES
  ('CCOC(=O)CCN1C(=O)[C@H]2[C@H]3[C@H](O)[C@H](O)CC(=NNC(=O)OCc4ccccc4)[C@@H]3CC[C@H]2C1=O', 0.21);

Input line: Indicate its recorded composite z-score; the compound in question is CCCNC(=O)OC[C@H]1O[C@H](CCON=C(C)CCN2CCCc3nc(C)c(C)cc32)C=C[C@@H]1Oc1ccc(OC)cc1
Output line: 0.147

Input line: Report composite z-score for CCOC(=O)NN=C1C[C@@H](O)[C@@H](O)[C@@H]2[C@@H]3C(=O)N(c4ccc(F)cc4F)C(=O)[C@@H]3CC[C@@H]12
Output line: -0.103

Input line: Please look at this compound and report its composite z-score: CCOC(=O)[C@H](Cc1ccccc1)NC(=O)CCC1CC(OC(=O)NCCc2ccc(F)cc2)CC2(CCCC(COC(=O)NCCCN3CCCC3=O)O2)O1 (stereo not given in full)
Output line: 0.0851

Input line: Given the compound C[C@@H]1C=CCC(=O)OC[C@H]2O[C@@H](C=C[C@@H]2O)[C@H](C)C=CCC(=O)OC1 , write its reported composite z-score.
Output line: -0.5

Input line: Output measured composite z-score for this item: O=C(NN=C1C[C@@H](O)[C@@H](O)[C@@H]2[C@@H]3C(=O)N(C[C@@H]4CCCO4)C(=O)[C@@H]3CC[C@@H]12)OCc1ccccc1
Output line: -0.275

Input line: // Input: CO[C@@H]1COC(=O)CC=C[C@@H](C)[C@@H]2C=C[C@H](O)[C@@H](COC(=O)CC=C[C@H]1C)O2 . Output its composite z-score only.
Output line: -0.257

* * *

Item-by-item account of composite z-score
target: Streptavidin (Streptomyces avidinii) (UniProt P22629); test: streptavidin binders on small-molecule microarray, primary screen, artefact control for SMM compound annotation, biophysical, 635/667 nm fluorescence (AID 1147); details: streptavidin binding, higher = more signal;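 also: signal reflects streptavidin binding to arrayed compounds as a control protein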
Sequence (P22629 whole entry, looked up): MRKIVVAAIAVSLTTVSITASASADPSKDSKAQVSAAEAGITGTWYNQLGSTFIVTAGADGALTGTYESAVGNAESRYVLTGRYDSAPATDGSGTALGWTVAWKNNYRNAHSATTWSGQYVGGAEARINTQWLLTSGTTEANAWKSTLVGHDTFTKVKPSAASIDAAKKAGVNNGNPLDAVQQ
Give the value as a plain number.

INSERT INTO results (structure_string, endpoint_name, measured_number) VALUES
  ('O=C1[C@H]2[C@H]3[C@H](O)[C@H](O)CC(=NOCc4ccccc4)[C@@H]3CC[C@H]2C(=O)N1C[C@@H]1CCCO1', 'composite z-score', 0.632),
  ('COc1cccc([C@H]2Oc3ccc(OC)cc3C(=NO[C@@H](C)c3cn([C@H](CO)Cc4ccccc4)nn3)[C@@H]2O)c1', 'composite z-score', 0.326),
  ('C[n+]1ccc(-c2ccc(CO)cc2)cc1', 'composite z-score', 2.72);

Input line: Provide composite z-score, recorded with Streptavidin (Streptomyces avidinii) (UniProt P22629), of COC(=O)[C@H]1[C@@H](O)[C@@]2(O)c3ccccc3O[C@@]2(c2ccccc2)[C@@H]1c1ccccc1
Output line: -0.419

* * *

molecular target: Streptavidin (Streptomyces avidinii); test: streptavidin binders on small-molecule microarray, primary screen, artefact control for SMM compound annotation, biophysical, 635/667 nm fluorescence (AID 1147); conditions: streptavidin binding, higher = more signal;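 also: signal reflects streptavidin binding to arrayed compounds as a control protein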
Class class 1: composite z-score at least 0.2. Class class 0: composite z-score below 0.2.

INSERT INTO measurements (compound, label_class) VALUES
  ('CO[C@@H]1C=CCC(=O)N2CCC[C@H]2C(=O)OC[C@@H](C)C(=O)OC[C@H]1C', 'class 0');

Input line: For this compound, is measured composite z-score 0.2 or higher? CCOC(=O)[C@H](Cc1ccccc1)NC(=O)CCC1CC(OC(=O)NCc2cccc3ccccc23)CC2(CCCC(COC(=O)NCc3cccc(C(F)(F)F)c3)O2)O1 (stereo not given in full)
Output line: class 1

Input line: Quick check, composite z-score >= 0.2? O=C1[C@H]2[C@H]3[C@H](O)[C@H](O)CC(=NO[C@@H]4O[C@H](CO)[C@@H](O)[C@H](O)[C@H]4O)[C@H]3CC[C@H]2C(=O)N1c1cccc(Oc2ccccc2)c1
Output line: class 1

Input line: Quick check, composite z-score >= 0.2? CC1O[C@H]2C3=C(C(=O)[C@@H]4O[C@@H]4[C@H]3O)[C@@H]1C1[C@@H](C)OC=C3[C@H](O)C4O[C@@H]4C(=NOCc4ccccc4)[C@]312 (stereo not given in full)
Output line: class 0

Input line: Is reported composite z-score greater than or equal to 0.2 here: CC(C)=NOC[C@@H](C)[C@H](OCc1ccccc1)C(C)C
Output line: class 0

Input line: Determine whether this compound has composite z-score no lower than 0.2: CON=C[C@@H](NS(=O)(=O)c1ccc(C)cc1)[C@H](C)C=CCC(=O)OC
Output line: class 0

Input line: Hello, I need to know if CCOC(=O)[C@H](Cc1ccccc1)NC(=O)CCC1CC(OC(=O)NCCc2ccc(F)cc2)CC2(CCCC(COC(=O)NCc3ccccc3)O2)O1 (stereo not given in full) has measured composite z-score not below 0.2. Thanks!
Output line: class 1

Input line: Is the recorded value of composite z-score equal to or greater than 0.2 for this compound? CC(C)CON=C1C[C@@H](O)[C@@H](O)[C@@H]2[C@@H]3C(=O)N(C4CCCCC4)C(=O)[C@@H]3CC[C@@H]12
Output line: class 0

Input line: // inclusive: composite z-score at least 0.2? input: CO[C@H]1COC(=O)[C@@H](C)COC(=O)[C@@H](OCc2ccccc2)C=C[C@@H]1C
Output line: class 0

Input line: Evaluate CCCCC#C[C@@H]1C=C[C@H](Oc2ccc(C(=O)OC)cc2)[C@@H](COC(=O)OCC)O1 : composite z-score at minimum 0.2?
Output line: class 1

Input line: Tell me whether composite z-score is at least 0.2 here: COC(=O)[C@H](C)NC(=O)CCC1CC(OC(=O)NCc2ccc3c(c2)OCO3)CC2(CCCC(COC(=O)NCCc3ccccc3OC)O2)O1 (stereo not given in full)
Output line: class 0

Input line: Check the entry CC(C)CCN1CCc2nc(COc3ccccc3)c3c(c2C1)CO[C@@H](C)C3 : does composite z-score equal or exceed 0.2?
Output line: class 1

Input line: Given COC(=O)CC=C[C@H](C)[C@@H](OCc1cccc(Br)c1)[C@@H](C)[C@H](OC)C1CCCCC1 , state whether its composite z-score is at least 0.2.
Output line: class 0

Input line: Identify whether the reported composite z-score of the following compound is 0.2 or greater: COC(=O)[C@@H]1CC[C@H](C)[C@@H](c2ccc(C)cc2)N1C(=O)c1ccc(C=NOCC[C@@H]2C=C[C@H](OC(C)=O)[C@@H](COC(C)=O)O2)cc1
Output line: class 1

Input line: Would you say CCOC(=O)[C@H](CC(C)C)NC(=O)CCC1CC(OC(=O)NCc2ccc3c(c2)OCO3)CC2(CCCC(COC(=O)NCc3cccc(C(F)(F)F)c3)O2)O1 (stereo not given in full) shows composite z-score at minimum 0.2?
Output line: class 0

Input line: Assess whether reported composite z-score for O=C1[C@H]2[C@H]3[C@H](O)[C@H](O)CC(=NOCc4ccccc4)[C@H]3CC[C@H]2C(=O)N1Cc1ccc2c(c1)OCO2 sits at 0.2 or higher.
Output line: class 1

Input line: Could you please find out whether COc1cccc([C@H]2Oc3ccc(OC)cc3C(=NO[C@@H]3O[C@H](COC(C)=O)[C@@H](OC(C)=O)[C@H](OC(C)=O)[C@H]3OC(C)=O)[C@@H]2O)c1 has composite z-score that meets 0.2 or exceeds it?
Output line: class 0

Input line: Quick check: does CO[C@@H]1COC(=O)[C@H](CCSC)NC(=O)CC=C[C@@H](C)COC(=O)CCC[C@H]1C have composite z-score greater than or equal to 0.2?
Output line: class 0

Input line: Decide: composite z-score of COC(=O)[C@@H]1CC[C@H](C)[C@@H](c2ccc(C)cc2)N1C(=O)c1ccc(C=NO[C@H](C)c2cn([C@@H]3COC[C@H]3O)nn2)cc1 >= 0.2?
Output line: class 0

Input line: Could you please find out whether COc1ccc(O[C@@H]2[C@H](O)CO[C@H]2C=Cc2ccccc2)cc1 has composite z-score that meets 0.2 or exceeds it?
Output line: class 0

Input line: Item C=CC[C@@H]1C=C[C@H](ON=C(C)CCC(=O)OC[C@H]2O[C@H](c3ccccc3)C=C[C@@H]2Oc2ccc(OC)cc2)[C@@H](CO)O1 with composite z-score of 0.2 or above?
Output line: class 0

Input line: hey, is composite z-score for this one >= 0.2? O=C1[C@H]2[C@H]3[C@H](O)[C@H](O)CC(=NOC[C@@H](O)COCc4ccco4)[C@H]3CC[C@H]2C(=O)N1C[C@@H]1CCCO1
Output line: class 0

Input line: Identify whether the reported composite z-score of the following compound is 0.2 or greater: C#CCCCON=C1[C@H]2CCn3c(=O)n(C)c(=O)n3[C@H]2[C@H](O)[C@@H]2O[C@H]12
Output line: class 1
